Experiment: CellTiter-Glo (CTG) cytotoxic assay, normal cells
Conditions: human, HEK-293F cells
Give IC50 at 72 h for every item shown.

**Q:** Consider the compound CC(=O)NCc1nc(-c2ccccn2)cc(O)c1[S+](C)[O-] (racemic) [(±)-2] and give its measured IC50 at 72 h.
**A:** > 100 µM

**Q:** Thanks! And COc1cc(-c2ccccn2)nc(CO)c1[S+](C)[O-] (stereo not drawn) [compound 1] ?
**A:** > 100 µM

**Q:** Thanks! And COc1cccc2c1C(=O)c1c(O)c3c(c(O)c1C2=O)C[C@@](O)(C(=O)CO)C[C@@H]3O[C@H]1C[C@H](N)[C@H](O)[C@H](C)O1 [Adriamycin, reference compound] ?
**A:** 0.05 µM

* * *

Test system: MCF-7 breast cancer cell line
Experiment: CellTiter-Glo (CTG) cytotoxic assay
Conditions: Homo sapiens, MCF7, 72 h, read-out: Cytotoxicity IC50, MCF-7
Quantity Measured: pIC50
// scale note: pIC50 = -log10(conc_M); give the bare number

**Q:** Consider the molecule CC(=O)NCc1nc(-c2ccccn2)cc(O)c1[S+](C)[O-] (racemic) [(±)-2] and give its measured pIC50.
**A:** 5.24

**Q:** Thanks! And COc1cccc2c1C(=O)c1c(O)c3c(c(O)c1C2=O)C[C@@](O)(C(=O)CO)C[C@@H]3O[C@H]1C[C@H](N)[C@H](O)[C@H](C)O1 [Adriamycin, reference compound] ?
**A:** 7.00

* * *

Give IC50 for every item shown.
Test system: HT-29 human colorectal cancer cell line
Experiment: SRB cytotoxicity assay
Conditions: read-out: Cytotoxicity IC50, HT-29; SRB method, 72 h (Table 5)
Provide the reading as a plain figure in µM.

**Q:** Consider the compound COc1cc(-c2ccccn2)nc(/C=N/O)c1[S+](C)[O-] (racemic) [(±)-3, pyrisulfoxin A] and give its measured IC50.
**A:** 0.83

**Q:** Thanks! And COc1cccc2c1C(=O)c1c(O)c3c(c(O)c1C2=O)C[C@@](O)(C(=O)CO)C[C@@H]3O[C@H]1C[C@H](N)[C@H](O)[C@H](C)O1 [Adriamycin, reference compound] ?
**A:** 0.16

* * *

Test system: BXPC-3 human pancreatic cancer cell line
Experiment: SRB cytotoxicity assay
Conditions: read-out: Cytotoxicity IC50, BXPC-3; SRB method, 72 h (Table 5)
Quantity Measured: pIC50
// scale note: pIC50 = -log10(conc_M); give the bare number

**Q:** // fetch BXPC-3 human pancreatic cancer cell line pIC50 for COc1cccc2c1C(=O)c1c(O)c3c(c(O)c1C2=O)C[C@@](O)(C(=O)CO)C[C@@H]3O[C@H]1C[C@H](N)[C@H](O)[C@H](C)O1 [Adriamycin, reference compound]
**A:** 7.49

**Q:** Thanks! And COc1cc(-c2ccccn2)nc(/C=N/O)c1[S+](C)[O-] (racemic) [(±)-3, pyrisulfoxin A] ?
**A:** 5.80

* * *

Give IC50 for every item shown.
System: BT474 breast cancer cell line
Experiment: CellTiter-Glo (CTG) cytotoxic assay
Conditions: Homo sapiens, BT-474, 72 h, read-out: Cytotoxicity IC50, BT474
Provide the reading as a plain figure in µM.

**Q:** Consider the compound COc1cccc2c1C(=O)c1c(O)c3c(c(O)c1C2=O)C[C@@](O)(C(=O)CO)C[C@@H]3O[C@H]1C[C@H](N)[C@H](O)[C@H](C)O1 [Adriamycin, reference compound] and give its measured IC50.
**A:** 1.94

**Q:** Thanks! And CC(=O)NCc1nc(-c2ccccn2)cc(O)c1[S+](C)[O-] (racemic) [(±)-2] ?
**A:** 8.24
